pIC50: −log10 of the molar value.
assay-endpoint: pIC50

Entry `CN(C)C(=O)c1cc2cnc(Nc3ccc(-c4csc5c(=O)cc(N6CCOCC6)oc45)cc3C(=O)O)nc2n1C1CCCC1` ; assay system PI3K beta (Homo sapiens, UniProt P42338); pIC50 recorded at > 6.30

# value of pIC50, PI3K beta (Homo sapiens, UniProt P42338), item `C/C=C/C(=O)N1CCOc2ccc(-c3csc4c(=O)cc(N5CCOCC5)oc34)cc21` = > 6.30

Form field pIC50 for item `CN(C)C(=O)c1cc2cnc(Nc3ccc(-c4csc5c(=O)cc(N6CCNCC6)oc45)cc3)nc2n1C1CCCC1` on PI3K beta (Homo sapiens, UniProt P42338): 4.35 to 5.00

Field pIC50 (PI3K beta (Homo sapiens, UniProt P42338)), entry `COc1cc(NC(C)=O)cc(-c2csc3c(=O)cc(N4CCOCC4)oc23)c1` : > 6.30

# `O=C(O)c1cc2cnc(Nc3ccc(-c4csc5c(=O)cc(N6CCOCC6)oc45)cc3)nc2n1C1CCCC1` with PI3K beta (Homo sapiens, UniProt P42338): pIC50 is > 6.30

Case `C/C=C(/C)C(=O)N1CCOc2ccc(-c3csc4c(=O)cc(N5CCOCC5)oc34)cc21` , PI3K beta (Homo sapiens, UniProt P42338), pIC50 recorded as > 6.30

PI3K beta (Homo sapiens, UniProt P42338) data for `C=CC(=O)Nc1cccc(-c2csc3c(=O)cc(N4CCNCC4)oc23)c1` ; its pIC50: < 4.35

Kindly note: PI3K beta (Homo sapiens, UniProt P42338), `COC(=O)c1cc(-c2csc3c(=O)cc(N4CCN(C(=O)OC(C)(C)C)CC4)oc23)cc2c1OCCO2` , pIC50 value reported: 5.00 to 6.00

// returns pIC50 for `C=CS(=O)(=O)Nc1cccc(-c2csc3c(=O)cc(N4CCOCC4)oc23)c1` with PI3K beta (Homo sapiens, UniProt P42338); value = > 6.30

Lab entry: PI3K beta (Homo sapiens, UniProt P42338) assay, compound `C=CS(=O)(=O)N(c1cccc(-c2csc3c(=O)cc(N4CCOCC4)oc23)c1)S(=O)(=O)C=C` , pIC50 = > 6.30

Value sought: pIC50, system PI3K beta (Homo sapiens, UniProt P42338), item `C=CC(=O)N1CCOc2ccc(-c3csc4c(=O)cc(N5CCNCC5)oc34)cc21` . Result: 5.00 to 6.00

Result for `CN(C)C(=O)c1cc2cnc(Nc3cc(C(=O)O)cc(-c4csc5c(=O)cc(N6CCOCC6)oc45)c3)nc2n1C1CCCC1` , tested on PI3K beta (Homo sapiens, UniProt P42338), pIC50: 5.00 to 6.00

Noted pIC50 for `C/C=C(\C)C(=O)N1CCOc2ccc(-c3csc4c(=O)cc(N5CCOCC5)oc34)cc21` , tested on PI3K beta (Homo sapiens, UniProt P42338): > 6.30

Measured on PI3K beta (Homo sapiens, UniProt P42338), `CN(C)C(=O)c1cc2cnc(Nc3cncc(-c4csc5c(=O)cc(N6CCOCC6)oc45)c3)nc2n1C1CCCC1` has a documented pIC50 of > 6.30

# CN(C)C(=O)c1cc2cnc(Nc3ccc(-c4csc5c(=O)cc(N6CCOCC6)oc45)c(C(=O)O)c3)nc2n1C1CCCC1 [Compound 15] with PI3K beta (Homo sapiens, UniProt P42338): pIC50 is > 6.30

Considering `C=CC(=O)N1CCOc2ccc(-c3csc4c(=O)cc(N5CCN(C(=O)OC(C)(C)C)CC5)oc34)cc21` , its pIC50 with PI3K beta (Homo sapiens, UniProt P42338) was recorded as 5.00 to 6.00

Fill in: PI3K beta (Homo sapiens, UniProt P42338) pIC50 for `N#C/C(=C\C1CC1)C(=O)Nc1cccc(-c2csc3c(=O)cc(N4CCOCC4)oc23)c1` = > 6.30

Entry `COC(=O)c1cc(-c2csc3c(=O)cc(N4CCOCC4)oc23)ccc1Nc1ncc2cc(C(=O)N(C)C)n(C3CCCC3)c2n1` under PI3K beta (Homo sapiens, UniProt P42338) had pIC50 of > 6.30

Tested system PI3K beta (Homo sapiens, UniProt P42338); pIC50 recorded for `CCCCC/C=C/C(=O)Nc1cccc(-c2csc3c(=O)cc(N4CCOCC4)oc23)c1` was 5.00 to 6.00

Query `CN(C)C(=O)c1cc2cnc(Nc3ccc(-c4csc5c(=O)cc(N6CCN(C(=O)OC(C)(C)C)CC6)oc45)cc3)nc2n1C1CCCC1` on PI3K beta (Homo sapiens, UniProt P42338); pIC50 returned: 6.00 to 6.30

PI3K beta (Homo sapiens, UniProt P42338) assay, compound `C=CC(=O)N1CCOc2ccc(-c3csc4c(=O)cc(N5CCN(C)CC5)oc34)cc21` , recorded pIC50 = 5.00 to 6.00

Observed pIC50 on PI3K beta (Homo sapiens, UniProt P42338), entry `O=C(NCc1cccnc1)c1cc(-c2csc3c(=O)cc(N4CCNCC4)oc23)cc2c1OCCO2` , equals 5.00 to 6.00

Measured pIC50 for this entry `C=CC(=O)Nc1ccc(-c2csc3c(=O)cc(N4CCOCC4)oc23)cc1` on PI3K beta (Homo sapiens, UniProt P42338): > 6.30

Entry `O=C(NCc1cccnc1)c1cc(-c2csc3c(=O)cc(N4CCOCC4)oc23)cc2c1OCCO2` : pIC50 on PI3K beta (Homo sapiens, UniProt P42338) = > 6.30

Lab note: compound `CN(C)C(=O)c1cc2cnc(Nc3csc4c(=O)cc(N5CCOCC5)oc34)nc2n1C1CCCC1` tested on PI3K beta (Homo sapiens, UniProt P42338); recorded pIC50 was > 6.30

Sample `O=C(C1=CCCC1)N1CCOc2ccc(-c3csc4c(=O)cc(N5CCOCC5)oc34)cc21` , system: PI3K beta (Homo sapiens, UniProt P42338). Its pIC50 is > 6.30

Tested on PI3K beta (Homo sapiens, UniProt P42338), the item `O=c1cc(N2CCOCC2)oc2c(-c3ccc4c(c3)OCCO4)csc12` showed pIC50 equal to > 6.30

`C=CC(=O)Nc1cccc(-c2csc3c(=O)cc(N4CCOCC4)oc23)c1` on PI3K beta (Homo sapiens, UniProt P42338) gives pIC50 = > 6.30

The value of pIC50 recorded for `C=CC(=O)N1CCOc2ccc(-c3csc4c(=O)cc(N5CCOCC5)oc34)cc21` when tested on PI3K beta (Homo sapiens, UniProt P42338) reads > 6.30

Query `C=CS(=O)(=O)N(CCS(=O)(=O)N(c1cc(-c2csc3c(=O)cc(N4CCOCC4)oc23)ccc1OC)S(=O)(=O)C=C)c1cc(-c2csc3c(=O)cc(N4CCOCC4)oc23)ccc1OC` on PI3K beta (Homo sapiens, UniProt P42338); pIC50 returned: > 6.30
